Target chain: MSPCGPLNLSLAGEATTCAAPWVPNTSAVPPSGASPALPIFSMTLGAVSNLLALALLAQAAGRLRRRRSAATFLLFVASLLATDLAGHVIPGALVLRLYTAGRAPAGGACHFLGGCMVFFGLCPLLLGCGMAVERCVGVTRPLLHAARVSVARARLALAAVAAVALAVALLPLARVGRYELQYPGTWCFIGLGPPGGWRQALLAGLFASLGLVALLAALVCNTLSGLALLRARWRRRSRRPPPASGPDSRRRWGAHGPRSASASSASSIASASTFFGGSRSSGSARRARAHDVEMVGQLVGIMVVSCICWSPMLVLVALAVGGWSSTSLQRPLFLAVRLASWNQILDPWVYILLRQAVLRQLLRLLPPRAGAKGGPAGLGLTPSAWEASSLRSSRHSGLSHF
measured.quantity: Ki (µM)

I: O=C(O)CCCCCCN1C(=O)CC[C@@H]1/C=C/C(O)C1(c2ccccc2)CC1 (some centres not stated)
II: O=C(O)CCCCCCN1C(=O)CC[C@@H]1/C=C/C(O)c1cccc(Oc2ccccc2)c1 (some centres not stated)
Given the listed items, does I or II have the lesser reported Ki? State the label of the item chosen.
I
